The reported numbers originate from paper PMC10967822.

Listed here: items and their measured MIC.
System: MRSA ATCC 43300
Experiment: MIC, broth microdilution (CO-ADD), MRSA
Type: cell-based, methicillin-resistant S. aureus
Details: Staphylococcus aureus; MRSA ATCC 43300; top dose 32 µg/mL; read-out: MIC MRSA

Field: example entries. Status: answers known.
COc1ccc2[nH]cc(C(=O)NCCCNCCCCCCCNCCCNC(=O)c3c[nH]c4ccc(OC)cc34)c2c1.O=C(O)C(F)(F)F.O=C(O)C(F)(F)F [Compound 14c] : > 39 µM
O=C(NCCCNCCCCCCNCCCNC(=O)c1c[nH]c2ccc(Br)cc12)c1c[nH]c2ccc(Br)cc12 [Compound 13b] : ≤ 0.28 µM
Cc1cccc2c(C(=O)NCCCNCCCCNCCCNC(=O)c3c[nH]c4c(C)cccc34)c[nH]c12 [Compound 18a] : 21.5 µM
O=C(NCCCNCCCCCCCCCCNCCCNC(=O)c1c[nH]c2ccc(Br)cc12)c1c[nH]c2ccc(Br)cc12 [Compound 13e] : ≤ 0.26 µM
Cc1cccc2c(C(=O)NCCCNCCCCCCNCCCNC(=O)c3c[nH]c4c(C)cccc34)c[nH]c12 [Compound 18b] : > 41 µM
Cc1ccc2[nH]cc(C(=O)NCCCNCCCCCCCCCCNCCCNC(=O)c3c[nH]c4ccc(C)cc34)c2c1 [Compound 15e] : ≤ 0.3 µM
COc1ccc2[nH]cc(C(=O)NCCCNCCCCCCCCCCNCCCNC(=O)c3c[nH]c4ccc(OC)cc34)c2c1.O=C(O)C(F)(F)F.O=C(O)C(F)(F)F [Compound 14e] : ≤ 0.29 µM

Now for another entry.
Qu. I am curious: what MIC value has been reported for Cc1cccc2c(C(=O)NCCCNCCCCCCCNCCCNC(=O)c3c[nH]c4c(C)cccc34)c[nH]c12 [Compound 18c] ?
Ans. ≤ 0.32 µM

* * *

Test system: human red blood cells
Test: Hemolytic assay
Format: cell-based
Conditions: 10% hemolytic activity, mean n = 2
Assay Metric: Hemolysis HC10

Field: example entries. Status: answers known.
O=C(NCCCNCCCCCCCNCCCNC(=O)c1c[nH]c2ccc(Br)cc12)c1c[nH]c2ccc(Br)cc12 [Compound 13c] : >35 µM
O=C(NCCCNCCCCCCCCCCCCNCCCNC(=O)c1c[nH]c2ccccc12)c1c[nH]c2ccccc12.O=C(O)C(F)(F)F.O=C(O)C(F)(F)F [Compound 12f] : >39 µM

Now for another entry.
Qu. I am curious: what Hemolysis HC10 value has been reported for O=C(NCCCNCCCCCCCCCCCCNCCCNC(=O)c1c[nH]c2ccc(Br)cc12)c1c[nH]c2ccc(Br)cc12.O=C(O)C(F)(F)F.O=C(O)C(F)(F)F [Compound 13f] ?
Ans. 14.2 µM

* * *

Test system: E. coli ATCC 25922
Assay: Erythromycin potentiation against E. coli
Type: cell-based, Escherichia coli
Conditions: erythromycin at 2 µg/mL (2.7 µM), mean n = 3
Assay Metric: Erythro/Ec: concentration required to restore erythromycin activity (combination MIC) (µM)

Cc1ccc2[nH]cc(C(=O)NCCCNCCCCCCCCNCCCNC(=O)c3c[nH]c4ccc(C)cc34)c2c1 [Compound 15d] : 31.2
O=C(NCCCNCCCCCCCCCCNCCCNC(=O)c1c[nH]c2ccccc12)c1c[nH]c2ccccc12.O=C(O)C(F)(F)F.O=C(O)C(F)(F)F [Compound 12e] : 62.4
O=C(NCCCNCCCCCCCCNCCCNC(=O)c1c[nH]c2ccc(Br)cc12)c1c[nH]c2ccc(Br)cc12 [Compound 13d] : 6.72
COc1ccc2[nH]cc(C(=O)NCCCNCCCCCCNCCCNC(=O)c3c[nH]c4ccc(OC)cc34)c2c1 [Compound 14b] : 62.1
O=C(NCCCNCCCCNCCCNC(=O)c1c[nH]c2ccccc12)c1c[nH]c2ccccc12 [Compound 12a] : 34.9

1: O=C(NCCCNCCCCCCCNCCCNC(=O)c1c[nH]c2ccc(Br)cc12)c1c[nH]c2ccc(Br)cc12 [Compound 13c]
2: Cc1ccc2[nH]cc(C(=O)NCCCNCCCCNCCCNC(=O)c3c[nH]c4ccc(C)cc34)c2c1 [Compound 15a]
3: COc1ccc2[nH]cc(C(=O)NCCCNCCCCCCCNCCCNC(=O)c3c[nH]c4ccc(OC)cc34)c2c1.O=C(O)C(F)(F)F.O=C(O)C(F)(F)F [Compound 14c]
Qu. List items by Erythro/Ec: concentration required to restore erythromycin activity (combination MIC) in falling order. Give me the labels in the order the question wants.
Ans. 3, 2, 1
(3: 244 µM, 2: 67.1 µM, 1: 6.82 µM)

1: O=C(NCCCNCCCCCCNCCCNC(=O)c1c[nH]c2c(F)cccc12)c1c[nH]c2c(F)cccc12 [Compound 16b]
2: Cc1cccc2c(C(=O)NCCCNCCCCCCNCCCNC(=O)c3c[nH]c4c(C)cccc34)c[nH]c12 [Compound 18b]
3: O=C(NCCCNCCCCCCCCNCCCNC(=O)c1c[nH]c2c(F)cccc12)c1c[nH]c2c(F)cccc12 [Compound 16d]
4: Cc1ccc2[nH]cc(C(=O)NCCCNCCCCCCCNCCCNC(=O)c3c[nH]c4ccc(C)cc34)c2c1 [Compound 15c]
Qu. List items by Erythro/Ec: concentration required to restore erythromycin activity (combination MIC) in falling order. Give me the labels in the order the question wants.
Ans. 3, 1, 4, 2

* * *

Tested on: S. aureus ATCC 25923
Assay: MIC, broth dilution, S. aureus
Assay type: cell-based, Staphylococcus aureus
Details: Staphylococcus aureus, ATCC25923; S. aureus ATCC 25923, 18 h; read-out: MIC Sa
Assay Metric: MIC (µM)

O=C(NCCCNCCCCCCCCNCCCNC(=O)c1c[nH]c2ccccc12)c1c[nH]c2ccccc12.O=C(O)C(F)(F)F.O=C(O)C(F)(F)F [Compound 12d] : 64.7
Cc1ccc2[nH]cc(C(=O)NCCCNCCCCCCCCCCCCNCCCNC(=O)c3c[nH]c4ccc(C)cc34)c2c1.O=C(O)C(F)(F)F.O=C(O)C(F)(F)F [Compound 15f] : 3.65
O=C(NCCCNCCCCCCNCCCNC(=O)c1c[nH]c2ccccc12)c1c[nH]c2ccccc12.O=C(O)C(F)(F)F.O=C(O)C(F)(F)F [Compound 12b] : 268
COc1cccc2c(C(=O)NCCCNCCCCCCCNCCCNC(=O)c3c[nH]c4c(OC)cccc34)c[nH]c12.O=C(O)C(F)(F)F.O=C(O)C(F)(F)F [Compound 17c] : 122

A: Cc1ccc2[nH]cc(C(=O)NCCCNCCCCCCCCCCNCCCNC(=O)c3c[nH]c4ccc(C)cc34)c2c1 [Compound 15e]
B: Cc1cccc2c(C(=O)NCCCNCCCCCCCCCCCCNCCCNC(=O)c3c[nH]c4c(C)cccc34)c[nH]c12.O=C(O)C(F)(F)F.O=C(O)C(F)(F)F [Compound 18f]
C: COc1ccc2[nH]cc(C(=O)NCCCNCCCCCCNCCCNC(=O)c3c[nH]c4ccc(OC)cc34)c2c1 [Compound 14b]
Qu. Which order do these items take when sorted by rising MIC? List them. Give me the labels in the order the question wants.
Ans. A, B, C
(A: 3.77 µM, B: 117 µM, C: 248 µM)

a: COc1ccc2[nH]cc(C(=O)NCCCNCCCCCCCCCCCCNCCCNC(=O)c3c[nH]c4ccc(OC)cc34)c2c1.O=C(O)C(F)(F)F.O=C(O)C(F)(F)F [Compound 14f]
b: O=C(NCCCNCCCCCCNCCCNC(=O)c1c[nH]c2ccc(Br)cc12)c1c[nH]c2ccc(Br)cc12 [Compound 13b]
Qu. Kindly compare a with b and tell me which has the lower MIC figure. API: response body contains the label of the selected item.
Ans. b

a: O=C(NCCCNCCCCCCCCCCCCNCCCNC(=O)c1c[nH]c2ccccc12)c1c[nH]c2ccccc12.O=C(O)C(F)(F)F.O=C(O)C(F)(F)F [Compound 12f]
b: O=C(NCCCNCCCCCCCNCCCNC(=O)c1c[nH]c2ccccc12)c1c[nH]c2ccccc12.O=C(O)C(F)(F)F.O=C(O)C(F)(F)F [Compound 12c]
Qu. Kindly compare a with b and tell me which has the lower MIC figure. API: response body contains the label of the selected item.
Ans. a

I: O=C(NCCCNCCCCCCCCCCNCCCNC(=O)c1c[nH]c2ccc(Br)cc12)c1c[nH]c2ccc(Br)cc12 [Compound 13e]
II: COc1ccc2[nH]cc(C(=O)NCCCNCCCCNCCCNC(=O)c3c[nH]c4ccc(OC)cc34)c2c1 [Compound 14a]
Qu. Please state the entry with greater MIC among I and II . API: response body contains the label of the selected item.
Ans. II

* * *

Test: Cytotoxicity assay (resazurin)
Format: cell-based
Conditions: human, HEK293 cells, mean n = 2
Assay Metric: IC50 at 20 h

Field: example entries. Status: answers known.
Cc1cccc2c(C(=O)NCCCNCCCCNCCCNC(=O)c3c[nH]c4c(C)cccc34)c[nH]c12 [Compound 18a] : > 43 µM
O=C(NCCCNCCCCNCCCNC(=O)c1c[nH]c2c(F)cccc12)c1c[nH]c2c(F)cccc12 [Compound 16a] : > 43 µM
O=C(NCCCNCCCCCCCCNCCCNC(=O)c1c[nH]c2ccccc12)c1c[nH]c2ccccc12.O=C(O)C(F)(F)F.O=C(O)C(F)(F)F [Compound 12d] : > 41 µM
O=C(NCCCNCCCCCCCCCCCCNCCCNC(=O)c1c[nH]c2ccccc12)c1c[nH]c2ccccc12.O=C(O)C(F)(F)F.O=C(O)C(F)(F)F [Compound 12f] : > 39 µM
COc1cccc2c(C(=O)NCCCNCCCCCCCNCCCNC(=O)c3c[nH]c4c(OC)cccc34)c[nH]c12.O=C(O)C(F)(F)F.O=C(O)C(F)(F)F [Compound 17c] : > 39 µM

Now for another entry.
Qu. I am curious: what IC50 at 20 h value has been reported for COc1cccc2c(C(=O)NCCCNCCCCNCCCNC(=O)c3c[nH]c4c(OC)cccc34)c[nH]c12 [Compound 17a] ?
Ans. > 41 µM
